- Target Entity: T1, CD3ε homodimer protein (human, UniProt P07766 23-126, limits assumed, sulfo-tag or biotin label in some ECL assays)
- T1 construct: also called human CD3ε homodimer protein; CD3 (CD3ε)
- T1 sequence (P07766 23-126 limits assumed): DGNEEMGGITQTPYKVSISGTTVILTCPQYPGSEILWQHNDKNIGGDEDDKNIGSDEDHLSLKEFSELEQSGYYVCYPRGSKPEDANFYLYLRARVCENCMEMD
- Protocol Description: SPR, CD3ε homodimer on chip;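 note: biacore SPR with antibody variants flowed as analyte over amine-coupled CD3ε homodimer on a CM chip, bound amount of each single-residue H chain variant over that of parent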
Assay Metric: ratio of amounts bound vs CE115HA000
A bare number is all that is needed in reply.

{"Binder": "CE115HA000 S77T (antibody, name in Kabat numbering, V domains shown) VH: QVQLVESGGGVVQPGRSLRLSCAASGFTFSNAWMHWVRQAPGKGLEWVAQIKAKSNNYATYYAESVKGRFTISRDDSKNTLYLQMNSLKTEDTAVYYCRYVHYGAYYGVDAWGQGTTVTVSS VL: DIVMTQSPLSLPVTPGEPASISCRSSQSLVHSNRNTYLHWYQQKPGQAPRLLIYKVSNRFSGVPDRFSGSGSGTDFTLKISRVEAEDVGVYYCGQGTQVPYTFGQGTKLEIK", "Assay Metric": "ratio of amounts bound vs CE115HA000", "Result Number": 0.9}
{"Binder": "CE115HA000 Y58Q (antibody, name in Kabat numbering, V domains shown) VH: QVQLVESGGGVVQPGRSLRLSCAASGFTFSNAWMHWVRQAPGKGLEWVAQIKAKSNNYATQYAESVKGRFTISRDDSKNSLYLQMNSLKTEDTAVYYCRYVHYGAYYGVDAWGQGTTVTVSS VL: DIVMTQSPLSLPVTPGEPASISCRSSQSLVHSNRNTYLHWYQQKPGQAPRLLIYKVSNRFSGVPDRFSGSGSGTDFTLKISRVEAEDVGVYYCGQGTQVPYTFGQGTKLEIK", "Assay Metric": "ratio of amounts bound vs CE115HA000", "Result Number": 0.19}
{"Binder": "CE115HA000 N53S (antibody, name in Kabat numbering, V domains shown) VH: QVQLVESGGGVVQPGRSLRLSCAASGFTFSNAWMHWVRQAPGKGLEWVAQIKAKSSNYATYYAESVKGRFTISRDDSKNSLYLQMNSLKTEDTAVYYCRYVHYGAYYGVDAWGQGTTVTVSS VL: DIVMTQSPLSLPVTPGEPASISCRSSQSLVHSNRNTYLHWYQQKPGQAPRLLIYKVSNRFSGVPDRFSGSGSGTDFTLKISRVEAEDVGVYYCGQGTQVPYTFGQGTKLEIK", "Assay Metric": "ratio of amounts bound vs CE115HA000", "Result Number": 0.83}

Request: Entry CE115HA000 K52bA (antibody, name in Kabat numbering, V domains shown) VH: QVQLVESGGGVVQPGRSLRLSCAASGFTFSNAWMHWVRQAPGKGLEWVAQIKAASNNYATYYAESVKGRFTISRDDSKNSLYLQMNSLKTEDTAVYYCRYVHYGAYYGVDAWGQGTTVTVSS VL: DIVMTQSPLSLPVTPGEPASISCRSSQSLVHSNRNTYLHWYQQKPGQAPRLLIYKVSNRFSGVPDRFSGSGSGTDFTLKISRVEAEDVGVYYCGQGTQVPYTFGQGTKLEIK has what ratio of amounts bound vs CE115HA000?
Response: 0.67

Request: What measured ratio of amounts bound vs CE115HA000 goes with CE115HA000 K52F (antibody, name in Kabat numbering, V domains shown) VH: QVQLVESGGGVVQPGRSLRLSCAASGFTFSNAWMHWVRQAPGKGLEWVAQIFAKSNNYATYYAESVKGRFTISRDDSKNSLYLQMNSLKTEDTAVYYCRYVHYGAYYGVDAWGQGTTVTVSS VL: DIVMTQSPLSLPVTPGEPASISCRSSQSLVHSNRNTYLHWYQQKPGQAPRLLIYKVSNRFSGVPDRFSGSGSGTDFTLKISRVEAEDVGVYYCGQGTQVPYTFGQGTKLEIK ?
Response: 0.17

Cited source: patent US20220040297A1
